# Tested on: NCI-H1648
# ASSAY REMARKS: relative viability (nuclei count vs DMSO), 5 days (fraction); higher = more cells survive
# RECORDED CONDITIONS: first compound 0.000632 µM
ATTRIBUTE MEASURED: relative viability
Would you mind answering with just the numeric figure?

Here is how some compounds turned out for relative viability.
{"columns": ["COMPOUND", "ATTRIBUTE MEASURED", "RESULT"],
 "data": [
  ["CC(=O)O[C@@]12CO[C@@H]1C[C@H](O)[C@@]1(C)C(=O)[C@H](O)C3=C(C)[C@@H](OC(=O)[C@H](O)[C@@H](NC(=O)OC(C)(C)C)c4ccccc4)C[C@@](O)([C@@H](OC(=O)c4ccccc4)[C@H]21)C3(C)C [Docetaxel] + O=C(CCCCCCC(=O)Nc1ccccc1)NO [Vorinostat] (partner 1 µM)", "relative viability", 0.378],
  ["CC(=O)O[C@@]12CO[C@@H]1C[C@H](O)[C@@]1(C)C(=O)[C@H](O)C3=C(C)[C@@H](OC(=O)[C@H](O)[C@@H](NC(=O)OC(C)(C)C)c4ccccc4)C[C@@](O)([C@@H](OC(=O)c4ccccc4)[C@H]21)C3(C)C [Docetaxel] + COc1cccc2cc(-c3nc([C@H]4CC[C@H](C(=O)O)CC4)n4ncnc(N)c34)[nH]c12 [OSI-027] (partner 0.5 µM)", "relative viability", 0.267]
]}

Okay, next one:
Field relative viability (system: NCI-H1648) for entry CC(=O)O[C@@]12CO[C@@H]1C[C@H](O)[C@@]1(C)C(=O)[C@H](O)C3=C(C)[C@@H](OC(=O)[C@H](O)[C@@H](NC(=O)OC(C)(C)C)c4ccccc4)C[C@@](O)([C@@H](OC(=O)c4ccccc4)[C@H]21)C3(C)C [Docetaxel] + O=C(c1cc(Cc2n[nH]c(=O)c3ccccc23)ccc1F)N1CCN(C(=O)C2CC2)CC1 [Olaparib] (partner 8 µM) = 0.563
